Where do the numbers come from? From ChEMBL document CHEMBL1133861.

# STUDY_SYSTEM: Protein farnesyltransferase (Homo sapiens, UniProt P49354+P49356)
# PROTOCOL_TEXT: Inhibition of farnesyltransferase activity against H-Ras
# Format: protein-complex assay
Threshold check on IC50: strictly below 500 nM is TRUE; on or above 500 nM is FALSE.

- SMILES_RECORD: "O=C(c1cn(Cc2cncn2Cc2ccccc2)cc1-c1cccc2ccccc12)N1CCOCC1"
  STUDY_SYSTEM: "Protein farnesyltransferase (Homo sapiens, UniProt P49354+P49356)"
  CATEGORY_LABEL: "TRUE"
- SMILES_RECORD: "Cn1cncc1Cn1cc(C(=O)N2CCOCC2)c(-c2cccc3ccccc23)c1"
  STUDY_SYSTEM: "Protein farnesyltransferase (Homo sapiens, UniProt P49354+P49356)"
  CATEGORY_LABEL: "TRUE"

Enquiry: Does the reported IC50 of O=C(c1cn(Cc2cncn2Cc2ccc3c(c2)OCO3)cc1-c1cccc2ccccc12)N1CCOCC1 stay below 500 nM?
Return: TRUE

Enquiry: Please do the same for O=C(c1cn(Cc2cnc[nH]2)cc1-c1ccccc1)N1CCOCC1 as well.
Return: FALSE

Enquiry: Then what about the molecule CN1CCN(C(=O)c2cn(Cc3cncn3Cc3ccc4c(c3)OCO4)cc2-c2cccc3ccccc23)CC1 ?
Return: TRUE
